// reported Ki for each item listed
measuredOn: alpha1-adrenoceptor
protocolDescription: Displacement of 3H-prazosin (0.5 nM) (alpha1-adrenoceptor affinity)
conditionDescription: rat cerebral cortex, mean of 10 experiments
Enter your answer as a number in µM; do not include the unit.

// Ki lookup, molecule = COc1ccc2oc(-c3ncc[nH]3)cc2c1.Cl [Example 7, hydrochloride] , result: 4.41

Measured Ki, c1ccc2c(c1)OCC(C1=NCCN1)O2 (stereo not shown) [Idazoxan, reference compound] : 0.091

Ki reading for CCn1ccnc1-c1cc2ccc(OC)cc2o1.Cl [Example 9, hydrochloride] : 22.6

Per the record, Brc1ccc2oc(-c3ncc[nH]3)cc2c1.Cl [Example 6, hydrochloride] has Ki of 33.3

====

measuredOn: alpha2-adrenoceptor (Rattus norvegicus)
Sequence (P22909 whole entry): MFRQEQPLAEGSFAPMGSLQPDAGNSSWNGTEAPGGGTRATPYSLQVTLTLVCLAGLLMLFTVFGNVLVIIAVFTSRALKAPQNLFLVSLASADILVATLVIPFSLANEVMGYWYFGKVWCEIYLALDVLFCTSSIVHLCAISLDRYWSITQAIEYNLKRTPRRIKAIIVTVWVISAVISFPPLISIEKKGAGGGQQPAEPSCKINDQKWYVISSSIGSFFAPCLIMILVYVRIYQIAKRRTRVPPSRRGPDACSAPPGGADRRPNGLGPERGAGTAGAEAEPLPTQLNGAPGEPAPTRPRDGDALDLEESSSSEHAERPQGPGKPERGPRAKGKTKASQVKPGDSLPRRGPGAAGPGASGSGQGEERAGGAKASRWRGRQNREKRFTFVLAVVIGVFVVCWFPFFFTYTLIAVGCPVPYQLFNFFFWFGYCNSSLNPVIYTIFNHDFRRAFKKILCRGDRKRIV
protocolDescription: Displacement of 3H-clonidine (2 nM) (alpha2-adrenoceptor affinity)
Assay type: binding
conditionDescription: 3H-clonidine (2 nM), rat cerebral cortex; mean of 10 experiments; read-out: Affinity (Ki) Alpha2
experimentalReadout: Ki (µM)
Respond numerically; units are µM and should not be typed.

>>> print(df.to_string())
                                   compound  outputunit  experimentalresult
0  Cl.Cn1ccnc1-c1cc2ccccc2o1 [Example 2, hydrochloride]          µM                62.1
1  COc1ccc2cc(-c3ncc[nH]3)oc2c1.Cl [Example 3, hydrochloride]          µM                56.1
2  COc1ccc2oc(-c3ncc[nH]3)cc2c1.Cl [Example 7, hydrochloride]          µM                98.7
3  Brc1ccc2oc(-c3ncc[nH]3)cc2c1.Cl [Example 6, hydrochloride]          µM                68.4
4  CCn1ccnc1-c1cc2ccc(OC)cc2o1.Cl [Example 9, hydrochloride]          µM                71.3

According to the records, this compound COC1(C2=NCCN2)COc2ccccc2O1 (stereo not drawn) [RX 821002, reference compound] displays Ki of 0.0007

====

measuredOn: alpha1-adrenoceptor
protocolDescription: Displacement of 3H-prazosin (0.5 nM) (alpha1-adrenoceptor affinity)
conditionDescription: rat cerebral cortex, mean of 10 experiments
Ki listing for selected molecules.
Just the number in µM, nothing appended.

Observe how each entry below is paired with its result.
                                   molecule  experimentalreadout  experimentalresult
0  Cl.c1ccc2oc(-c3ncc[nH]3)cc2c1 [Example 1, hydrochloride]                   Ki                36.5
1  COc1ccc2cc(-c3ncc[nH]3)oc2c1.Cl [Example 3, hydrochloride]                   Ki                17.8

Consider the additional molecule presented here.
The molecule identified as Cl.Cn1ccnc1-c1cc2ccccc2o1 [Example 2, hydrochloride] registered its Ki at 26.2
